Each recorded value in this set is attributed to patent US20230265187A1.

# experimental.target: T1, his-tagged human TIGIT (Acro Biosystems #TIT-H52H3) (human, UniProt Q495A1 22-141)
# T1 construct: Bought protein; also called His-tagged-TIGIT (human); not shown: his tag
# T1 sequence (looked up): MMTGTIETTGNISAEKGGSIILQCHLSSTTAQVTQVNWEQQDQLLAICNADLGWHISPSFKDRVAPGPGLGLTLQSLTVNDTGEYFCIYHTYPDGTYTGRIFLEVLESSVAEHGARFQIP
# assay.notes: ELISA, coated His-TIGIT, 1 ug/ml
Lab note - cut at 2 OD450 for Elisa OD450: t if strictly below, f if not.

In: Threshold test, Elisa OD450 < 2 OD450: 43586p1.2.C9 (scFv, V domains shown) VH: EVQLLESGGGLVQPGGSLRLSCAASGFTFDDYVMSWVRQAPGKGLEWVSLINWNGDKTYYADSVKGRFTISRDNSKNTLYLQMNSLRAEDTAIYYCAKHWIVFQYGMDVWGQGTTVTVSS VL: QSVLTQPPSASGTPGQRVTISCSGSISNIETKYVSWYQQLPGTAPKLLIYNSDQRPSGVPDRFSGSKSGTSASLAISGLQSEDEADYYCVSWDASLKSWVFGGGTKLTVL
Out: f

In: Threshold test, Elisa OD450 < 2 OD450: 43586p2.D05 (scFv, V domains shown) VH: EVQLLESGGGLVQPGGSLRLSCAASGFTFDDYVMSWVRQAPGKGLEWVSLINWNGDKTYYADSVKGRFTISRDNSKNTLYLQMNSLRAEDTAVYYCARHWIVFQYGLDIWGQGTTVTVSS VL: QSVLTQPLSASGTPGQRVTISCSGVSSNIEIKYVSWYQQLPGTAPKLLIYNSHQRPSGVPDRFSGSKSGTSASLAISGLQSEDEADYYCTSWDDRLKSWVFGGGTKLTVL
Out: t

In: Criterion: Elisa OD450 strictly below 2 OD450. Is it met by 43586p2.D06 (scFv, V domains shown) VH: EVQLLESGGGLVQPGGSLRLSCAASGFTFSSYWMNWVRQAPGKGLEWVSGIYSGGTTYYADSVKGRFTISRDNSKNTLYLQMNSLRAEDTAVYYCTRENWKENNAMDVWGQGTTVTVSS VL: QSVLTQPPSASGTPGQRVTISCSGVTSNIASYHVYWYQQLPGTAPKLLIYLNSQRPSGVPDRFSASKSGTSASLAISGLQSEDEADYYCATWDGSLNGWVFGGGTKLTVL ?
Out: t

In: Does the reported Elisa OD450 of 43586p1.2.C12 (scFv, V domains shown) VH: ESGGGLVQPGGSLRLSCAASGFTFSDYLMTWVRQAPGKGLEWVSTITWDGDRTYYADSVKGRFTISRDNSKNTLYLQMNSLRAEDTAVYYCAKHWTVFQYGMDVWGQGTTVTVSS VL: QSVLTQPPSASGTPGQRVTISCSGTISNIEIKYVSWYQQLPGTAPKLLIYGNHQRPSGVPDRFSGSKSGTSASLAISGLQSEDEADYYCSSWENDLKSWVFGGGTKLTVL stay below 2 OD450?
Out: f
